- System under test: CETP (Homo sapiens (Human))
- Test name: Scintillation Proximity Assay (SPA) for CETP activity
- Format: biochemical
- Condition notes: read-out: SPA IC50
Readout type: IC50 (nM)
Record the value in nM, omitting the unit from your answer.

Consider the reported IC50 for these molecules:
| Molecule | IC50, nM |
| --- | --- |
| O[C@H](CN1c2ccccc2N(Cc2cccc(OC(F)(F)F)c2)C[C@H]1c1cccc(C(F)(F)F)c1)C(F)(F)F [Example 10] | 9 |
| O[C@H](CN1c2ccccc2N(Cc2cccc(OC(F)(F)F)c2)C[C@H]1c1cccc(OC(F)(F)F)c1)C(F)(F)F [Example 21] | 19 |
| N#Cc1cccc([C@@H]2CN(Cc3cccc(OC(F)(F)F)c3)c3ccccc3N2C[C@@H](O)C(F)(F)F)c1 [Example 24] | 98 |
| CNC(=O)c1cccc(C2CN(Cc3cccc(OC(F)(F)F)c3)c3ccccc3N2C[C@@H](O)C(F)(F)F)c1 (stereo partly shown) [Example 19] | 90 |
| O[C@H](CN1c2ccccc2N(Cc2cccc(OC(F)(F)F)c2)C[C@H]1c1cc(C(F)(F)F)cc(C(F)(F)F)c1)C(F)(F)F [Example 25] | 770 |
| COc1cccc([C@@H]2CN(Cc3cccc(OC(F)(F)F)c3)c3ccccc3N2C[C@@H](O)C(F)(F)F)c1 [Example 20] | 78 |

Could you now consider this next molecule?
So what's the measured IC50 for this one? C[C@@H](c1cccc(C(F)(F)F)c1)N1C[C@@H](c2cccc(C(F)(F)F)c2)N(C[C@@H](O)C(F)(F)F)c2ccccc21 [Example 12]
28

* * *

Some compounds, each annotated with its measured IC50.
- System under test: CETP (Homo sapiens (Human), UniProt P11597)
- Sequence (P11597 18-493): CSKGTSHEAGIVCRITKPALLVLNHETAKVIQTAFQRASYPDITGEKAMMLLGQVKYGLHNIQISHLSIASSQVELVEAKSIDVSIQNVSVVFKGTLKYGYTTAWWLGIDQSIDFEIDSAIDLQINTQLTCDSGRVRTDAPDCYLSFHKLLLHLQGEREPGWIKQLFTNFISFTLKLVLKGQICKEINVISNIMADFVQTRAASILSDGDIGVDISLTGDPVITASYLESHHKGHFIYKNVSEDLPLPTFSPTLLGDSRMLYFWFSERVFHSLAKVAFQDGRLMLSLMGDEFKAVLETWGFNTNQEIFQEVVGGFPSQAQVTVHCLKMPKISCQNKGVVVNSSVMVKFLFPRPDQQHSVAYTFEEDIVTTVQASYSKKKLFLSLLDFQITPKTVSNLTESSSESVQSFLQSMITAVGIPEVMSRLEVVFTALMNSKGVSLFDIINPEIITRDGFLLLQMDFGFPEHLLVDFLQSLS
- Test name: Scintillation Proximity Assay (SPA) for CETP activity
- Type: biochemical
- Condition notes: Table 1, read-out: IC50

Consider the reported IC50 for these compounds:
| Test smiles | Result |
| --- | --- |
| COc1ccc([C@@H]2CN(Cc3cccc(OC(F)(F)F)c3)c3ccccc3N2C[C@@H](O)C(F)(F)F)cc1 | 69 nM |
| O[C@H](CN1c2ccccc2N(Cc2cc(F)cc(C(F)(F)F)c2)C[C@H]1c1ccccc1)C(F)(F)F | 105 nM |
| O[C@H](CN1c2ccccc2N(CC2CCCCC2)C[C@H]1c1cccc(C(F)(F)F)c1)C(F)(F)F | 1270 nM |
| O[C@H](CN1c2ccccc2N(Cc2cccc(OC(F)(F)F)c2)C[C@H]1c1ccc(F)cc1)C(F)(F)F | 682 nM |

Could you now consider this next compound?
So what's the measured IC50 for this one? O[C@H](CN1c2ccccc2N(Cc2cc(Cl)cc(Cl)c2)C[C@H]1c1cccc(C(F)(F)F)c1)C(F)(F)F
12 nM

* * *

- System under test: CETP (Homo sapiens (Human), UniProt P11597)
- Test name: Scintillation Proximity Assay (SPA) for CETP activity
- Type: biochemical
- Condition notes: Table 1, read-out: IC50
Could you mark each record Met if its IC50 falls strictly under 0.2 µM, and Not met if it equals or exceeds it?

Example results:
| Molecule | Class |
| --- | --- |
| O[C@H](CN1c2ccccc2N(Cc2cccc(OC(F)(F)F)c2)C[C@H]1c1ccc2c(c1)OCCO2)C(F)(F)F | Not met |
| COc1cc2ccc([C@@H]3CN(Cc4cccc(OC(F)(F)F)c4)c4ccccc4N3C[C@@H](O)C(F)(F)F)cc2cc1OC | Met |
| O[C@H](CN1c2ccccc2N(Cc2cccc(Cl)c2)C[C@H]1c1ccccc1)C(F)(F)F | Not met |

I'd appreciate it if you could check whether O[C@H](CN1c2ccccc2N(Cc2c(Cl)cccc2Cl)C[C@H]1c1cccc(C(F)(F)F)c1)C(F)(F)F has IC50 smaller than 0.2 µM.
Not met

I'd appreciate it if you could check whether O[C@H](CN1c2ccccc2N(Cc2cc(Cl)cc(Cl)c2)C[C@H]1c1ccccc1)C(F)(F)F has IC50 smaller than 0.2 µM.
Not met

I'd appreciate it if you could check whether CCc1cc(CN2C[C@@H](c3cccc(C(F)(F)F)c3)N(C[C@@H](O)C(F)(F)F)c3ccccc32)ccc1Cl has IC50 smaller than 0.2 µM.
Met

I'd appreciate it if you could check whether O[C@H](CN1c2ccccc2N(C2C=Cc3ccccc32)CC1c1cccc(OC(F)(F)C(F)F)c1)C(F)(F)F (stereo partly shown) has IC50 smaller than 0.2 µM.
Met
